- Test system: P. falciparum stage V gametocytes
- Parameters: BacTiter-Glo ATP luminescence viability of purified stage V gametocytes in 384-well plates, per cent inhibition versus DMSO
- condition info: 48 h, 5 µM; inhibitor
In all, about 13,000 compounds went through this assay and about 3,200 (25%) showed an effect of 50% or more. This is one part of the list.
Please note: label 1 applies when % Inhibition is 10% or greater, and label 0 applies otherwise.

See these solved cases before continuing.
{"compound": "CCN(CC)CCCN(CCCN(CC)CC)c1cc(C)nc(Nc2ccc(Br)cc2)n1", "class assignment": "label 1"}
{"compound": "CC(Oc1ccc(NC(=O)c2cccs2)cc1)C(=O)c1ccc(Cl)cc1 (stereo not drawn)", "class assignment": "label 1"}
{"compound": "CCN(CCCN1CCCCC1)c1cc(C)nc(Nc2ccc(C)cc2)n1", "class assignment": "label 0"}

Problem: Does % Inhibition meet or surpass 10% for "Cc1ccc2c(N/N=C/c3ccccc3[N+](=O)[O-])cc(C)nc2c1" ?
Solution: label 1

Problem: Hi, just wondering whether CC(C)c1ccc(C(NC(=O)C2CCCCC2)c2ccc3cccnc3c2O)cc1 (stereo not drawn) shows % Inhibition of 10% or higher.
Solution: label 1

Problem: Determine whether measured % Inhibition meets or exceeds 10% for CC(C)CCN1CCC(Oc2ccc(NC(=O)c3cccs3)cc2Cl)C1 (stereo not drawn)
Solution: label 1

Problem: Reported % Inhibition at or above 10%? O=C(Nc1ccc(OC2CCN(Cc3ccccc3)C2)c(Cl)c1)c1cccs1 (stereo not drawn)
Solution: label 1

Problem: % Inhibition >= 10% for "Cc1cc(N/N=C/c2ccccc2[N+](=O)[O-])c2ccccc2n1" ?
Solution: label 0
